subject.of.test: IL-23 (human, p19/p40 heterodimer) (Homo sapiens, UniProt Q9NPF7;P29460 SEQ:20-189,SEQ:23-328)
Sequence (Q9NPF7 20-189, chain 1 of 2): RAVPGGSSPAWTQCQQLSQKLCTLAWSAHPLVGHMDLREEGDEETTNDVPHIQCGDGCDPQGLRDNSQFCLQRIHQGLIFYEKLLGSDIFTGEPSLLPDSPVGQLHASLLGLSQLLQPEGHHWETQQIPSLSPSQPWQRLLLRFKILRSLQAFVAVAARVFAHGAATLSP
Sequence (P29460 23-328, chain 2 of 2): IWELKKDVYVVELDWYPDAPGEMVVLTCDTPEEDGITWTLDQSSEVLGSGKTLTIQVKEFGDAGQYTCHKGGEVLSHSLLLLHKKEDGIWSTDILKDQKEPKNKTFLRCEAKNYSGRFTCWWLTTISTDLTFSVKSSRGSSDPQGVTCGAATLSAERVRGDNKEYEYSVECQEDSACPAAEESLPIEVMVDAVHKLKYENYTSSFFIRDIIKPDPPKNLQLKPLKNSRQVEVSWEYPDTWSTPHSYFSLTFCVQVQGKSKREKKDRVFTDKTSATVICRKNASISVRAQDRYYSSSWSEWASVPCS
assay: filter; dot blot; DPBS with Ca and Mg, 0.1 mg/mL BSA, 30 min RT
conditions.used: tags: R&D Systems, carrier free; label: 5'-32P; G4 (predicted)

{"binder": "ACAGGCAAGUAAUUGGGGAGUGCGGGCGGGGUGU (mixed, dRmY; 3'-idT) [ARC1386]", "Kd (nM)": 1}
